# TEST_NAME: Antiproliferative activity against human SGC7901 cells after 72 hrs by MTT assay
# Assay type: functional, cell-based
# CONDITION: SGC-7901, 72 h
METRIC: pIC50
Scale: pIC50 equals -log10([C]), with [C] in mol/L.

Examples with answers:
COMPOUND_STRING	OBSERVED_MEASUREMENT
C[C@@H]1[C@H](OC(=O)CCc2ccccc2)C[C@H]2[C@@H](C)[C@H](OC(=O)CCc3ccccc3)O[C@@H]3O[C@@]4(C)CC[C@@H]1[C@]32OO4	4.06
COc1cccc(/C=C/C(=O)O[C@@H]2O[C@@H]3O[C@@]4(C)CC[C@H]5[C@H](C)[C@H](OC(=O)/C=C/c6cccc(OC)c6)C[C@@H]([C@H]2C)[C@@]35OO4)c1	4.79
COc1ccccc1/C=C/C(=O)O[C@@H]1O[C@@H]2O[C@@]3(C)CC[C@H]4[C@H](C)[C@H](OC(=O)/C=C/c5ccccc5OC)C[C@@H]([C@H]1C)[C@@]24OO3	4.33
C[C@@H]1[C@H](OC(=O)/C=C/c2ccccc2)C[C@H]2[C@@H](C)[C@H](OC(=O)/C=C/c3ccccc3)O[C@@H]3O[C@@]4(C)CC[C@@H]1[C@]32OO4	4.89
C[C@@H]1[C@H](OC(=O)/C=C/c2ccc(C(F)(F)F)cc2)C[C@H]2[C@@H](C)[C@H](OC(=O)/C=C/c3ccc(C(F)(F)F)cc3)O[C@@H]3O[C@@]4(C)CC[C@@H]1[C@]32OO4	4.40

Kindly review the next compound as well.
What does the record list as pIC50 for "C[C@@H]1[C@H](OC(=O)/C=C/c2ccc([N+](=O)[O-])cc2)C[C@H]2[C@@H](C)[C@H](OC(=O)/C=C/c3ccc([N+](=O)[O-])cc3)O[C@@H]3O[C@@]4(C)CC[C@@H]1[C@]32OO4" ? 4.73

* * *

Here, each record is paired with measured IC50 data.
# System: A549
# TEST_NAME: Antiproliferative activity against human A549 cells after 72 hrs by MTT assay
# Type: functional, cell-based
# CONDITION: A549, 72 h

Examples with answers:
>>> df
                            compound_string  observed_measurement
0  COc1ccc(/C=C/C(=O)O[C@@H]2O[C@@H]3O[C@@]4(C)CC[C@H]5[C@H](C)[C@H](O)C[C@@H]([C@H]2C)[C@@]35OO4)cc1              > 100 µM
1  C[C@@H]1[C@H](O)C[C@H]2[C@@H](C)[C@H](OC(=O)/C=C/c3ccc(Cl)cc3)O[C@@H]3O[C@@]4(C)CC[C@@H]1[C@]32OO4              > 100 µM
2  C[C@@H]1[C@H](O)C[C@H]2[C@@H](C)[C@H](OC(=O)/C=C/c3ccccc3)O[C@@H]3O[C@@]4(C)CC[C@@H]1[C@]32OO4              > 100 µM
3  C[C@@H]1[C@H](O)C[C@H]2[C@@H](C)[C@H](OC(=O)/C=C/c3ccc(Br)cc3)O[C@@H]3O[C@@]4(C)CC[C@@H]1[C@]32OO4              > 100 µM
4  Cc1ccc(/C=C/C(=O)O[C@@H]2O[C@@H]3O[C@@]4(C)CC[C@H]5[C@H](C)[C@H](OC(=O)/C=C/c6ccc(C)cc6)C[C@@H]([C@H]2C)[C@@]35OO4)cc1              > 100 µM

Kindly review the next molecule as well.
Give IC50 (A549) of the following molecule: "C[C@@H]1[C@H](O)C[C@H]2[C@@H](C)[C@H](OC(=O)/C=C/c3cccc(Cl)c3)O[C@@H]3O[C@@]4(C)CC[C@@H]1[C@]32OO4" > 100 µM
